meta.source: ChEMBL document CHEMBL5042524

procedureText: MRT (0 to infinity) in Sprague-Dawley rat at 10 mg/kg, po measured upto 48 hrs by LC-MS/MS analysis
Type: ADME, organism-based
appliedConditions: in vivo
endpointLabel: MRT inf (h)
State the answer as a number, implicitly in h.

Prompt line: Recorded MRT inf for COc1ccc(-c2ncc(C(=O)NCCCCCCC(=O)NO)s2)c(OC)c1 , please?
Response line: 8.5

* * *

targetUnderTest: Histone deacetylase
procedureText: Inhibition of HDAC in human HeLa nuclear extracts using fluorometric substrate incubated for 30 mins by fluorescence plate reader analysis
Format: cell-based
Assignment: determine reported log10 IC50 for the given compounds.
For clarity, the numbers are log10 values of IC50 expressed in nM.

Prompt line: State its log10 IC50 on Histone deacetylase: O=C(/C=C/c1cnc(-c2ccc3c(c2)OCO3)s1)NO
Response line: 2.95

Prompt line: Repeat with COc1ccc(-c2ncc(/C=C/C(=O)NO)s2)cc1
Response line: 2.11

Prompt line: Also COc1ccc(-c2ncc(C(=O)NCCCC(=O)NO)s2)c(OC)c1 ?
Response line: 2.86

Prompt line: And the next one, COc1ccc(-c2ncc(/C=C/C(=O)Nc3ccccc3N)s2)cc1OC ?
Response line: 2.72

Prompt line: Param item: COc1ccc(-c2ncc(C(=O)NCCCCCC(=O)NO)s2)c(OC)c1
Response line: 2.54

Prompt line: Item: COc1ccc(-c2ncc(C(=O)NCCCCCCC(=O)NO)[nH]2)c(OC)c1
Response line: 1.90

Prompt line: One more compound: COc1cccc(-c2ncc(C(=O)NCCCCCCC(=O)NO)s2)c1
Response line: 2.64

Prompt line: Record: O=C(CCCCCCNC(=O)c1cnc(-c2ccc(Oc3ccccc3)cc2)s1)NO
Response line: 2.90

Prompt line: Another compound to check: CC(C)(C)OC(=O)Nc1ccc(-c2ncc(C(=O)NCCCCCCC(=O)NO)s2)cc1
Response line: 2.46

Prompt line: Follow-up item: Cc1ccc(-c2ncc(/C=C/C(=O)Nc3ccccc3N)s2)cc1
Response line: 2.82

Prompt line: For COc1ccccc1-c1ncc(C(=O)NCCCCCCC(=O)NO)s1 then?
Response line: 2.43

* * *

procedureText: AUC (0 to infinity) in Sprague-Dawley rat at 2 mg/kg, iv measured upto 48 hrs by LC-MS/MS analysis
Format: ADME, organism-based
Parameters: route intravenous, dose 2 mg/kg, time <=48
appliedConditions: in vivo
endpointLabel: AUC(0-inf) (ng·h/mL)
State the answer as a number, implicitly in ng·h/mL.

Prompt line: Would you mind telling me what AUC(0-inf) value was observed for COc1ccc(-c2ncc(C(=O)NCCCCCCC(=O)NO)s2)c(OC)c1 ?
Response line: 319

* * *

targetUnderTest: Histone deacetylase 8 (Homo sapiens, UniProt Q9BY41)
Sequence (Q9BY41 whole entry): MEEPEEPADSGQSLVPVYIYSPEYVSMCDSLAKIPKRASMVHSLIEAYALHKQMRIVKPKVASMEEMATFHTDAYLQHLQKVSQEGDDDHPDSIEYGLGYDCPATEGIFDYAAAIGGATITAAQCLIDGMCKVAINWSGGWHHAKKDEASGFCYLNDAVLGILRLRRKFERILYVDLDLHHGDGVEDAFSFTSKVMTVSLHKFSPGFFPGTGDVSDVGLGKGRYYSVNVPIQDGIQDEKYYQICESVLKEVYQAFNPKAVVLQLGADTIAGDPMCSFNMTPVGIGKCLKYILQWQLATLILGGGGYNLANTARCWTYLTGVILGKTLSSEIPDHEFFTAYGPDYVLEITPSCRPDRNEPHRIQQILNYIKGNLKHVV
procedureText: Inhibition of full length recombinant human C-terminal His tagged HDAC8 expressed in baculovirus infected Sf9 insect cells using Ac-Leu-GlyLys (Tfa)-AMC as substrate preincubated for 5 mins followed by substrate addition and measured after 30 mins by fluorescence microtiter plate reader assay
endpointLabel: pIC50
In plain terms, pIC50 is the concentration in mol/L turned into minus its base-10 logarithm.

Prompt line: Bench note: what pIC50 did COc1ccc(-c2ncc(C(=O)NCCCCCCC(=O)NO)s2)c(OC)c1 show?
Response line: 5.04

Prompt line: Same read-out for COc1cccc(-c2ncc(C(=O)NCCCCCCC(=O)NO)s2)c1 ?
Response line: 4.82

Prompt line: For COc1cc(-c2ncc(/C=C/C(=O)Nc3ccccc3N)s2)cc(OC)c1OC then?
Response line: 4.85

Prompt line: // next record CC(C)(C)OC(=O)Nc1ccc(-c2ncc(C(=O)NCCCCCCC(=O)NO)s2)cc1
Response line: 5.28

Prompt line: Further, for COc1ccc(-c2ncc(/C=C/C(=O)Nc3ccccc3N)s2)cc1OC ?
Response line: 4.94

Prompt line: Also COc1ccc(-c2ncc(C(=O)NCCCCCCC(=O)NO)[nH]2)c(OC)c1 ?
Response line: 4.84

Prompt line: Field entry: COc1ccc(-c2ncc(/C=C/C(=O)NO)s2)c(OC)c1OC
Response line: 5.59

Prompt line: Lookup CC(C)(C)OC(=O)Nc1ccc(-c2cc(C(=O)NCCCCCCC(=O)NO)no2)cc1
Response line: 5.21

Prompt line: // same read-out, input: COc1ccc(-c2ncc(C(=O)NCCCCCC(=O)NO)s2)c(OC)c1
Response line: 4.70

Prompt line: Request: COc1cc(-c2ncc(/C=C/C(=O)NO)s2)cc(OC)c1OC
Response line: 5.65

Prompt line: Same again, this time with COc1ccccc1-c1ncc(C(=O)NCCCCCCC(=O)NO)s1
Response line: 4.99

Prompt line: Follow-up entry: COc1ccc(-c2ncc(/C=C/C(=O)NO)s2)cc1
Response line: 5.43

Prompt line: Continue with COc1cccc(-c2ncc(/C=C/C(=O)Nc3ccccc3N)s2)c1
Response line: 4.87
